Tested on: SARS-CoV-2
Experiment: SARS-CoV-2 infection assay, viral RNA in culture supernatant by real-time RT-PCR
Type: cell-based, SARS-CoV-2 Wk-521 strain
Conditions: Severe acute respiratory syndrome coronavirus 2, read-out: IC90 (90% maximal inhibitory concentration); viral RNA in culture supernatant, 24 h post-inoculation, VeroE6/TMPRSS2 cells
TEST READOUT: IC90

Would you please look over these solved cases?
Exercise: Suppose we examine the compound CC(C)CC[C@@H](O)[C@@H](C)[C@H]1CC[C@H]2[C@@H]3CC=C4C[C@@H](O)CC[C@]4(C)[C@H]3CC[C@]12C [22(R)-OHC, 22(R)-hydroxycholesterol] ; what IC90 value has been reported?
Solution: > 30 µM

Exercise: Suppose we examine the compound CC(C)CCC[C@@H](C)[C@H]1CC[C@H]2[C@@H]3C(=O)C=C4C[C@@H](O)CC[C@]4(C)[C@H]3CC[C@]12C [7-KC, 7-ketocholesterol] ; what IC90 value has been reported?
Solution: > 30 µM

Let us examine a further case.
Exercise: Suppose we examine the compound CC(C)CCC[C@@H](C)[C@H]1CC[C@H]2[C@@H]3CC=C4[C@@H](O)[C@@H](O)CC[C@]4(C)[C@H]3CC[C@]12C [4-beta-OHC, 4beta-hydroxycholesterol] ; what IC90 value has been reported?
Solution: > 30 µM

* * *

The following compounds are listed with their measured IC90 values.
System: SARS-CoV-2
Assay: SARS-CoV-2 infection assay, viral RNA in culture supernatant by real-time RT-PCR
Assay type: cell-based, SARS-CoV-2 Wk-521 strain
Settings: Severe acute respiratory syndrome coronavirus 2, read-out: IC90 (90% maximal inhibitory concentration); viral RNA in culture supernatant, 24 h post-inoculation, VeroE6/TMPRSS2 cells

Would you please look over these solved cases?
Exercise: Find IC90 (SARS-CoV-2) for the entry CC(C)CC[C@H](O)[C@@H](C)[C@H]1CC[C@H]2[C@@H]3CC=C4C[C@@H](O)CC[C@]4(C)[C@H]3CC[C@]12C [22(S)-OHC, 22(S)-hydroxycholesterol]
Solution: > 30 µM

Exercise: Find IC90 (SARS-CoV-2) for the entry CC(C)[C@@H](O)CC[C@@H](C)[C@H]1CC[C@H]2[C@@H]3CC=C4C[C@@H](O)CC[C@]4(C)[C@H]3CC[C@]12C [24(S)-OHC, 24(S)-hydroxycholesterol]
Solution: > 30 µM

Let us examine a further case.
Exercise: Find IC90 (SARS-CoV-2) for the entry CCCCCC[C@@](C)(O)[C@H]1CC[C@H]2[C@@H]3C[C@H](O)[C@H]4C[C@@H](O)CC[C@]4(C)[C@H]3CC[C@@]21C [Oxy133]
Solution: > 15 µM

* * *

Assay: Cell viability by MTT assay
Details: African green monkey, VeroE6 cells stably overexpressing TMPRSS2
TEST READOUT: CC50 at 24 h

Exercise: Suppose we examine the compound CCC(CC)COC(=O)[C@H](C)N[P@](=O)(OC[C@H]1O[C@@](C#N)(c2ccc3c(N)ncnn23)[C@H](O)[C@@H]1O)Oc1ccccc1 [RDV, remdesivir, reference compound] ; what CC50 at 24 h value has been reported?
Solution: > 10 µM

* * *

The following molecules are listed with their measured CC50 values.
Test: in vitro
Settings: African green monkey

Would you please look over these solved cases?
Exercise: Suppose we examine the molecule CC(C)[C@@H](O)CC[C@@H](C)[C@H]1CC[C@H]2[C@@H]3CC=C4C[C@@H](O)CC[C@]4(C)[C@H]3CC[C@]12C [24(S)-OHC, 24(S)-hydroxycholesterol] ; what CC50 value has been reported?
Solution: > 30 µM

Exercise: Suppose we examine the molecule C[C@]12CC[C@H](O)C[C@@H]1CC[C@@H]1[C@@H]2CC[C@@]2(C)[C@H]1CC[C@@H]2[C@](C)(O)CCc1ccc(F)cc1 [Oxy186] ; what CC50 value has been reported?
Solution: > 15 µM

Exercise: Suppose we examine the molecule CC(C)CC[C@H](O)[C@@H](C)[C@H]1CC[C@H]2[C@@H]3CC=C4C[C@@H](O)CC[C@]4(C)[C@H]3CC[C@]12C [22(S)-OHC, 22(S)-hydroxycholesterol] ; what CC50 value has been reported?
Solution: > 30 µM

Exercise: Suppose we examine the molecule CC[C@@](O)(CCc1cccnc1)[C@H]1CC[C@H]2[C@@H]3CC[C@H]4C[C@@H](O)CC[C@]4(C)[C@H]3CC[C@]12C [Oxy232] ; what CC50 value has been reported?
Solution: > 15 µM

Exercise: Suppose we examine the molecule CCCCCC[C@@](C)(O)[C@H]1CC[C@H]2[C@@H]3C[C@H](O)[C@H]4C[C@@H](O)CC[C@]4(C)[C@H]3CC[C@@]21C [Oxy133] ; what CC50 value has been reported?
Solution: > 15 µM

Exercise: Suppose we examine the molecule CC(C)CCC[C@@H](C)[C@H]1CC[C@H]2[C@@H]3CC=C4C[C@@H](O)CC[C@]4(C)[C@H]3CC[C@]12C [Cholesterol, reference compound] ; what CC50 value has been reported?
Solution: > 30 µM

***
Exercise: Suppose we examine the molecule C[C@]12CC[C@H]3[C@@H](CC=C4C[C@@H](O)CC[C@@]43C)[C@@H]1CC[C@@H]2[C@](C)(O)CCc1cccnc1 [Oxy210] ; what CC50 value has been reported?
Solution: > 15 µM

Exercise: Suppose we examine the molecule CC(C)CCC[C@@H](C)[C@H]1CC[C@H]2[C@@H]3CC=C4[C@@H](O)[C@@H](O)CC[C@]4(C)[C@H]3CC[C@]12C [4-beta-OHC, 4beta-hydroxycholesterol] ; what CC50 value has been reported?
Solution: > 30 µM

Exercise: Suppose we examine the molecule CC(C)CC[C@@H](O)[C@@H](C)[C@H]1CC[C@H]2[C@@H]3CC=C4C[C@@H](O)CC[C@]4(C)[C@H]3CC[C@]12C [22(R)-OHC, 22(R)-hydroxycholesterol] ; what CC50 value has been reported?
Solution: > 30 µM

Exercise: Suppose we examine the molecule C[C@@H](CO)CCC[C@@H](C)[C@H]1CC[C@H]2[C@@H]3CC=C4C[C@@H](O)CC[C@]4(C)[C@H]3CC[C@]12C [27-OHC, 27-hydroxycholesterol] ; what CC50 value has been reported?
Solution: > 30 µM

Exercise: Suppose we examine the molecule CC(C)CCC[C@@H](C)[C@H]1CC[C@H]2[C@@H]3C(=O)C=C4C[C@@H](O)CC[C@]4(C)[C@H]3CC[C@]12C [7-KC, 7-ketocholesterol] ; what CC50 value has been reported?
Solution: > 30 µM
